# Tested on: UISO
# assay_details: qHTS assay to identify novel small-molecules to repurpose for Merkel cell carcinoma treatment (AID 1296009); also: nearly all actives have a fitted effect of over 60% in size
# condition_description: MCC and control cell lines, CellTiter-Glo viability, 72 h; series mostly up to 46 µM
Inconclusive results are not listed. Active and inactive are the calls of the source. Calls follow the shape of the dose curve; as a rule, active = well fitted inhibition curve with a large enough effect; inconclusive = small, poorly fitted or top-dose-only effect; inactive = flat fitted curve, though single readings scatter.
Labels: class 1 (active), class 0 (inactive)

1. Nc1ccc(-c2ccc3ncc4ccc(=O)n(-c5cccc(C(F)(F)F)c5)c4c3c2)cn1; class 1
2. COc1ccc(-c2ccc3ncc4c(c3c2)n(-c2ccc(N3CCNCC3)c(C(F)(F)F)c2)c(=O)n4C)cn1; class 1
3. COc1cc(N2CCN(C)CC2)ccc1Nc1nc(N)c(C(=O)c2c(Cl)cccc2Cl)s1; class 0
4. O=C(Nc1cccc(C(F)(F)F)c1)Nc1cc(S(=O)(=O)NC2CC2)ccc1-c1ccsc1; class 0
5. CNc1nc(-c2ccc3c(N)n[nH]c3c2)cc(N2C[C@@H](C(=O)NC3CCCCC3)CC[C@@H]2C)n1; class 0
6. CCNC(=O)c1noc(-c2cc(C(C)C)c(O)cc2O)c1-c1ccc(CN2CCOCC2)cc1; class 1
7. NC(=O)c1noc([C@H](CCCC2CCCCC2)CC(=O)NO)n1; class 1
8. CCCCOCCOc1nc(-c2ccc(C(=O)O)c(F)c2)sc1C; class 0
9. CCn1c(-c2nonc2N)nc2cncc(CNC3CCNCC3)c21; class 0
10. CN1C(=O)C(Cc2c[nH]c3ccccc23)NC1=S (stereo not drawn); class 0
11. COc1nccc(-c2c(-c3ccc(F)cc3)ncn2C2CCNCC2)n1; class 0
12. COc1cc(Cl)cn2c(-c3cccc(NC4CNC4)n3)cnc12; class 0
13. Cc1ccc(NC(=O)Nc2cc(C(F)(F)F)ccc2F)cc1Nc1ccc2c(c1)NC(=O)C2=Cc1ccc[nH]1; class 1
14. CCCCCCCCCCCCCC(=O)N[C@H](CO)[C@H](O)c1ccc([N+](=O)[O-])cc1; class 0
15. COc1ccc2nc3cc(Cl)ccc3c(Nc3cc(CN4CCCC4)c(O)c(CN4CCCC4)c3)c2n1; class 0
16. N[C@@H](CC(=O)N1CCn2c(nnc2C(F)(F)F)C1)Cc1cc(F)c(F)cc1F; class 0
17. CCCC1OC2C[C@@H]3[C@H]4CCC5=CC(=O)C=C[C@]5(C)[C@H]4C(O)C[C@]3(C)[C@]2(C(=O)CO)O1 (stereo partly drawn); class 0
18. CC1CCN(c2cc(N3CCN(C)CC3)ccc2NC(=O)c2cc(C#N)c[nH]2)CC1; class 0
19. CN(C(Cc1ccc(OS(=O)(=O)c2cccc3cnccc23)cc1)C(=O)N1CCN(c2ccccc2)CC1)S(=O)(=O)c1cccc2cnccc12 (stereo not drawn); class 1
20. COc1ccc(CCC(=O)Nc2nc3ccc(Cl)cc3s2)cc1OC; class 0
21. O=C(O)CCC=CCC[C@@H]1[C@H](N2CCCCC2)[C@@H](O)C[C@@H]1OCc1ccc(-c2ccccc2)cc1; class 0
22. CC(C)=CCCC(C)=CCCC(C)=CCCC(C)=CCCC(C)=CCCC(C)=CCCC(C)=CCCC(C)=CCCC(C)=CCO; class 0
23. Fc1ccc(C(c2ccc(F)cc2)N2CCN(CC=Cc3ccccc3)CC2)cc1; class 0
24. CC1(C)C(N(O)C(=O)Nc2ccc(Cl)cc2)N(c2ccc(Cl)cc2)C(=O)N1CC(=O)NN=CC=Cc1ccc([N+](=O)[O-])o1 (stereo not drawn); class 0
25. COc1cc(Nc2nc3ccccc3nc2NS(=O)(=O)c2ccc(NC(=O)c3ccc(C)c(OC)c3)cc2)cc(OC)c1; class 0
26. CCc1cccc(CC)c1NC(=O)N1Cc2[nH]nc(NC(=O)c3ccc(N4CCN(C)CC4)cc3)c2C1; class 0
27. CN(C)c1nc(Cc2ccc(NC(=O)c3ccc(C(F)(F)F)cc3)cc2)nc(N(C)C)c1CC(=O)O; class 0
28. Cc1ccc2c(c1)C(=O)[C@]1(O)CCN(c3ccccc3)C1=N2; class 0
29. CCNC(=O)CCCC=CC[C@@H]1[C@H](C=CC(O)CCc2ccccc2)[C@@H](O)C[C@@H]1O (stereo partly drawn); class 0
30. CCC(c1ccc(O)cc1)C(CC)c1ccc(O)cc1 (stereo not drawn); class 0
31. CN(C)CCN(C)C(=O)c1ccc(NC(=O)Nc2ccc(-c3nc(N4CCOCC4)c4ccn(CC(F)(F)F)c4n3)cc2)cc1; class 1
32. COC(=O)Nc1ccc(-c2nc(N3CCOCC3)c3cnn(C4CCN(C(=O)OC)CC4)c3n2)cc1; class 1
33. CN1c2ccccc2C(=O)N2CCc3c([nH]c4ccccc34)C21 (stereo not drawn); class 0
34. Cc1ccc(S(=O)(=O)OCC(=O)Nc2ccc(C(=O)O)c(O)c2)cc1; class 0
35. CCOC(=O)[C@H]1O[C@H]1C(=O)N[C@@H](CC(C)C)C(=O)NCCC(C)C; class 0
36. NC(N)=Nc1nc(CSCCC(N)=NS(N)(=O)=O)cs1; class 0
37. OCCn1cc(-c2ccc3c(c2)CCC3=NO)c(-c2ccncc2)n1; class 0
38. CN1CCC(COc2cnc(-c3cccc(Cn4nc(-c5cccc(C#N)c5)ccc4=O)c3)nc2)CC1; class 0
